FYI, the data here is from PubChem BioAssay AID1159580.

protocol_summary: chemical genetic growth profiling, strain panel (AID 1159580);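 further: tested at 20 µM; growth read once vehicle control cultures reached saturation at 30 °C; 1 = growth at the plate median or of vehicle wells; lower values mean less growth of the strain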
particulars: S. cerevisiae deletion strains, growth OD, locus YAL026C, strain drs2, stronger effect = lower value
Among all 5,500 compounds or so, about 2,000 (36%) were called active. Not shown: some 18% with an inconclusive outcome. Some of the results follow.
measured_property: normalized growth
# output: bare number, no unit

Inquiry: // lookup normalized growth for `Nc1ccc(C(=O)Oc2ccccc2)c(O)c1`
Reply text: 0.915

Inquiry: Param item: COC(=O)C1=C(C)NC(C)=C(C(=O)OCC(C)C)C1c1ccccc1[N+](=O)[O-] (stereo not drawn)
Reply text: 0.216

Inquiry: Param item: `CCN(CC)CCNc1ccc(CO)c2sc3ccccc3c(=O)c12`
Reply text: 0.999

Inquiry: Param item: `NCC(=O)CCC(=O)O`
Reply text: 1.01

Inquiry: Param item: CC(=O)O[C@@H]1CC2C(C)(C)[C@H](O)C[C@H](O)[C@]2(C)C2CC[C@@]3(C)[C@H](c4ccoc4)OC(=O)[C@H]4O[C@]43[C@@]21C (stereo partly drawn)
Reply text: 0.993

Inquiry: Param item: `COc1cc2c(cc1OC)-c1cc3ccc(OC)c(OC)c3c[n+]1CC2`
Reply text: 0.987

Inquiry: Param item: `O=C1CCc2cc(OCCCCc3nnnn3C3CCCCC3)ccc2N1`
Reply text: 1.01

Inquiry: Param item: COC(=O)C1=C(C)NC(C)=C(C(=O)OCCN(C)Cc2ccccc2)C1c1cccc([N+](=O)[O-])c1 (stereo not drawn)
Reply text: 0.979

Inquiry: Param item: `O=C(O)c1cc(=O)c2ccccc2o1`
Reply text: 0.984

Inquiry: Param item: `N[C@H](CO)Cc1ccccc1`
Reply text: 1.02

Inquiry: Param item: CC(=O)O[C@H]1C[C@@]2(C)[C@H](c3ccoc3)OC(=O)[C@H]3O[C@]32[C@@]2(C)C1[C@]1(C)C(C[C@H]2OC(C)=O)C(C)(C)[C@H](OC(C)=O)C[C@@H]1OC(C)=O (stereo partly drawn)
Reply text: 0.97

Inquiry: Param item: `COc1ccc(-c2coc3cc(OC(C)=O)cc(OC(C)=O)c3c2=O)cc1`
Reply text: 0.949

Inquiry: Param item: CC(=O)O[C@H]1C[C@@H](O)C(C)(C)C2C[C@@H](OC(C)=O)[C@]3(C)C(CC[C@@]4(C)[C@H](c5ccoc5)OC(=O)C5OC543)[C@]21C (stereo partly drawn)
Reply text: 1.01

Inquiry: Param item: `NC(=O)CC[C@@H](N)C(=O)O`
Reply text: 1.05

Inquiry: Param item: `O=c1oc2ccccc2c(O)c1Cc1c(O)c2ccccc2oc1=O`
Reply text: 1.03

Inquiry: Param item: `COc1c2c(cc3c1OCO3)CC[N+](C)=C2`
Reply text: 0.995

Inquiry: Param item: `COC(=O)C1=C(C)NC(C)=C(C(=O)OC)C1c1ccccc1[N+](=O)[O-]`
Reply text: 0.812

Inquiry: Param item: `Cc1cc2cc3c(C)cc(=O)oc3c(C)c2o1`
Reply text: 0.949

Inquiry: Param item: `S=c1ccss1`
Reply text: 0.779

Inquiry: Param item: `CC(=O)Nc1ccc(OC(=O)c2ccccc2O)cc1`
Reply text: 0.949

Inquiry: Param item: C=CCc1ccccc1OCC(O)CNC(C)C (stereo not drawn)
Reply text: 1

Inquiry: Param item: `C/C(=C\C(=O)OCCCCCCCCC(=O)O)C[C@@H]1OC[C@H](C[C@@H]2O[C@H]2[C@@H](C)[C@H](C)O)[C@@H](O)[C@H]1O`
Reply text: 0.958

Inquiry: Param item: `CC(=O)Nc1cccc(O)c1`
Reply text: 1.03

Inquiry: Param item: `Nc1ccc(C(=O)O)c(O)c1`
Reply text: 1

Inquiry: Param item: `O=c1[nH]c2cc(Cl)c(Cl)cc2[nH]c1=O`
Reply text: 0.993

Inquiry: Param item: `CC1=CCc2c(cc3oc(C)cc(=O)c3c2O)OC1`
Reply text: 0.964

Inquiry: Param item: `O=c1c(-c2ccccc2)coc2cc(O)cc(O)c12`
Reply text: 0.927

Inquiry: Param item: `CC(C)=CCc1c2c(c(O)c3c(=O)c(O)c(-c4ccccc4)oc13)C=CC(C)(C)O2`
Reply text: 0.566

Inquiry: Param item: `O=C(O)c1nc2cc(Cl)c(Cl)cc2[nH]c1=O`
Reply text: 1.03

Inquiry: Param item: `C[n+]1cc2c3c(ccc2c2ccc4cc5c(cc4c21)OCO5)OCO3`
Reply text: 0.657

Inquiry: Param item: `COc1cc2cc[n+]3cc4c(OC)c(OC)ccc4cc3c2cc1OC`
Reply text: 0.97

Inquiry: Param item: `COc1c(O)cccc1O`
Reply text: 1.04

Inquiry: Param item: `CC(=O)N(O)CCCCCNC(=O)CCC(=O)N(O)CCCCCNC(=O)CCC(=O)N(O)CCCCCN`
Reply text: 1
